EXPERIMENT SUMMARY: Caspase-3/7 induction in HepG2 cells by small molecules, qHTS assay (AID 1346978); also: nearly all actives have a fitted effect of over 15% in size
STUDY CONDITIONS: HepG2 caspase-3/7 activation, Caspase-Glo luminescence, 17 h; series mostly up to 92.4 µM
Inconclusive results are not listed. Calls of active or inactive are those of the source. Calls follow the shape of the dose curve; as a rule, active = well fitted activation curve with a large enough effect in the repeat runs; inconclusive = weak or mixed curves; inactive = flat fitted curve, though single readings scatter.
Classes used: YES = active, NO = inactive

- CCCCOCN(C(=O)CCl)c1c(CC)cccc1CC: NO
- CC(c1ccc(O)cc1)c1ccc(O)cc1: NO
- CCCCCCCCc1ccc(O)cc1: YES
- CC(C)(C)c1cc([N+](=O)[O-])cc(C(C)(C)C)c1O: NO
- CCC(C)(C)C(=O)OC1=C(c2ccc(Cl)cc2Cl)C(=O)OC12CCCCC2: NO
- CN(C)C1CSSSC1: NO
- CCC(C)c1cc([N+](=O)[O-])cc([N+](=O)[O-])c1OC(=O)C=C(C)C (stereo unspecified): NO
- CCc1ccccc1C: NO
- O=c1c(C2CC(c3ccc(-c4ccc(Br)cc4)cc3)Cc3ccccc32)c(O)sc2ccccc12 (stereo unspecified): NO
- Clc1ccc(C(Cl)(Cl)Cl)c(Cl)c1: NO
- NC(=O)CCl: NO
